Data credit: patent US11179383B2

study system: α4β7 integrin (Homo sapiens, UniProt P13612+P26010)
Construct: monitoring the capture of α4β7 integrin expressing cells on a recombinant MadCAM-1 extracellular domain-coated plate; endogenous in cells; host or cells: RPMI8866 cells
Sequence (P13612 34-1032): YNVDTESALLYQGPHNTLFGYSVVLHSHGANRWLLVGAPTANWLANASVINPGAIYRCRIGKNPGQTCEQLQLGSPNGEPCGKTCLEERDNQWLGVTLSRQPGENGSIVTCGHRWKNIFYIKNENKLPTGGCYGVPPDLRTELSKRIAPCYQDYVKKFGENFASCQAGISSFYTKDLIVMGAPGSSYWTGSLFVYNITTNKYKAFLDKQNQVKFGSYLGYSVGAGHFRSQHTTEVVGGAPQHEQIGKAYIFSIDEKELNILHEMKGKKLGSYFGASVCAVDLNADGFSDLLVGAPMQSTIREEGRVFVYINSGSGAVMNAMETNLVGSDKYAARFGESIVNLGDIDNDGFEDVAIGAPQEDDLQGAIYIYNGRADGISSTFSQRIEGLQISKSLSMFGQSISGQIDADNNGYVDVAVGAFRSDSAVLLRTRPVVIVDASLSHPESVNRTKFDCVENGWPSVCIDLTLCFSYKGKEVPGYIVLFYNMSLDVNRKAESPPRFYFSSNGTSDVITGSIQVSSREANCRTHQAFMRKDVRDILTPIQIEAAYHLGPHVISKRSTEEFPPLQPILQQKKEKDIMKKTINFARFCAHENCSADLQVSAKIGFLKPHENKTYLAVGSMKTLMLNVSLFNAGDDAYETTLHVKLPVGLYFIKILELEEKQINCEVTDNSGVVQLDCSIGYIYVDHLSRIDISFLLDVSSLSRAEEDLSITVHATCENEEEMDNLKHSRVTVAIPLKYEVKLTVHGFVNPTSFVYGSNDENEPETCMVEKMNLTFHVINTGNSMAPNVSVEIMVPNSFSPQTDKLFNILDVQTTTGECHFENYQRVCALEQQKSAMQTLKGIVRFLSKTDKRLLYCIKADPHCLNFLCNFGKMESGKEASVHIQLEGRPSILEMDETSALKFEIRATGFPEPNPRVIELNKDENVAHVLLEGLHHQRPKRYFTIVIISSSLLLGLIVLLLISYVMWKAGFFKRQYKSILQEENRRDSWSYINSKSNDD
Sequence (P26010 20-798): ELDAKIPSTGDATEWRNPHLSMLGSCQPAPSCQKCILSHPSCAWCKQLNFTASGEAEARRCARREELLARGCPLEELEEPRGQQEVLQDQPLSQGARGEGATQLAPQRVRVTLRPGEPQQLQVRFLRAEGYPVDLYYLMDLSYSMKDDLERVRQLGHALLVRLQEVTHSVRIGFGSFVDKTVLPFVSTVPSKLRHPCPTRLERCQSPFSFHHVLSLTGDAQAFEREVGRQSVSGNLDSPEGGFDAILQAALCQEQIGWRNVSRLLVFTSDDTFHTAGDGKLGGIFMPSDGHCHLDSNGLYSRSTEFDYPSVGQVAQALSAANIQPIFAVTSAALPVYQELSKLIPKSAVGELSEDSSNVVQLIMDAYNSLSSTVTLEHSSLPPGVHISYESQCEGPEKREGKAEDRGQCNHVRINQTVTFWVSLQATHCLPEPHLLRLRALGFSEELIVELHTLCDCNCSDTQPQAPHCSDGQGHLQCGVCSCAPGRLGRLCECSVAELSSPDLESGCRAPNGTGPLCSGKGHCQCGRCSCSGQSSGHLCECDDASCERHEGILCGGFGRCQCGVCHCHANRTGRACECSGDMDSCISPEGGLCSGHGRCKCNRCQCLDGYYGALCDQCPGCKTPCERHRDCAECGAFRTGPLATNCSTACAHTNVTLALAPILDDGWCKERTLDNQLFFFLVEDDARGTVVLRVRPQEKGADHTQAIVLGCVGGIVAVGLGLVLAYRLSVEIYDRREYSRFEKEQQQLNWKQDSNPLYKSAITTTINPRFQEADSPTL
assay overview: α4β7 Integrin Cell Capture Assay
Assay type: cell-based
condition details: capture of α4β7 integrin expressing RPMI8866 cells on recombinant MadCAM-1 extracellular domain-coated plate; DMEM+0.5% FBS+0.5 mM MnCl2; read-out: EC50 α4β7
measure: EC50 (nM)

Use the examples below as a reference point.
# compound, EC50, nM
measured = [
    ("CCOCc1cc(OC)c(-c2ccc(C[C@H](NC(=O)c3c(F)cc(NS(=O)(=O)c4ccc(-c5ccnc(F)c5)cc4)cc3F)C(=O)O)c3nc(C)oc23)c(OC)c1", 5.8),
    ("Cn1c(=O)c(-c2ccc(C[C@H](NC(=O)c3c(Cl)cccc3Cl)C(=O)O)c3ncccc23)c(C(F)(F)F)c2ccccc21 (single isomer, unassigned) [Example 62]", 3.2),
    ("CCOCc1cc(OC)c(-c2ccc(C[C@@H](NC(=O)c3c(F)cc(NS(=O)(=O)c4ccc(-c5ccnc(F)c5)cc4)cc3F)C(=O)O)c3ccncc23)c(OC)c1 (single isomer, unassigned)", 1.7),
]

[1] CCOCc1cc(OC)c(-c2ccc(C[C@H](NC(=O)c3c(F)cc(NS(=O)(=O)c4ccc(-c5ccnc(F)c5)cc4)cc3F)C(=O)O)c3nccnc23)c(OC)c1
[2] COc1cc(C)n(C)c(=O)c1-c1ccc(C[C@H](NC(=O)c2c(F)cc(N3CCOC[C@@H]3C(F)(F)F)cc2F)C(=O)O)c2ccccc12 (single isomer, unassigned) [Example 124]
INPUT: I'm curious, which of these has a smaller EC50 number: 1 or 2 ? Lab log: write the label of the selected item as the result.
OUTPUT: 2
(2: 0.2 nM, 1: 1.6 nM)
